Reference source: patent US8748483B2

Target: GPCR HM74A (niacin receptor) (Homo sapiens, UniProt Q8TDS4)
Construct: expressed in transfected cells; host or cells: HEK293
Sequence (Q8TDS4 whole entry): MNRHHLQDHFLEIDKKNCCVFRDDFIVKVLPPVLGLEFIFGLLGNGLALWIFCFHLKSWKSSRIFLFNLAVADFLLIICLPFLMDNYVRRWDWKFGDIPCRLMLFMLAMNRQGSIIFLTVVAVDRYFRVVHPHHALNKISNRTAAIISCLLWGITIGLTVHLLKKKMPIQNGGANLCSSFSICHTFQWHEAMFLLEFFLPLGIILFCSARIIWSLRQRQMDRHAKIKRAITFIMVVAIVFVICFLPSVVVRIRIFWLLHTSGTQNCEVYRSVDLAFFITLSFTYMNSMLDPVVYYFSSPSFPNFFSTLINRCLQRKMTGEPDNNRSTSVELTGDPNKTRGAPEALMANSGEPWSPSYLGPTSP
Test: FLIPR in vitro functional assay, intracellular Ca2+ in recombinant HEK293 cells expressing HM74A and Gα6qi4myr
Format: cell-based
Settings: 100% = 1 μM niacin
Measurement label: EC50

smiles_structure=C/C=C/c1oc(C(=O)O)cc(=O)c1OCC(F)(F)F meas_value="70 nM"
smiles_structure=CCCCCCOc1coc(C(=O)O)cc1=O meas_value="34200 nM"
smiles_structure=C/C=C/c1oc(C(=O)O)cc(=O)c1CCCC meas_value="140 nM"
smiles_structure=O=C(O)c1cc(=O)c(OCCCF)co1 meas_value="760 nM"
smiles_structure=CCCc1cc(=O)cc(C(=O)O)o1 meas_value="66700 nM"
smiles_structure=CCOC(=O)/C=C/c1coc(C(=O)O)cc1=O meas_value="1190 nM"
smiles_structure=CCc1ccc(COc2coc(C(=O)O)cc2=O)cc1 meas_value="3240 nM"
smiles_structure=C/C=C/c1oc(C(=O)O)cc(=O)c1OCc1ccc([N+](=O)[O-])cc1 meas_value="240 nM"
smiles_structure=O=C(O)c1cc(=O)c(OCC(F)(F)F)co1 meas_value="1000 nM"
smiles_structure=CC(C)OC(=O)/C=C/c1coc(C(=O)O)cc1=O meas_value="6870 nM"
smiles_structure=C=C(CCC)c1coc(C(=O)O)cc1=O meas_value="6600 nM"
smiles_structure=O=C(O)c1cc(=O)c(OCc2ccccc2F)co1 meas_value="12100 nM"
smiles_structure=C=CCOc1coc(C(=O)O)cc1=O meas_value="29900 nM"
smiles_structure=O=C(O)c1cc(=O)c(/C=C/CCc2ccccc2)co1 meas_value="10800 nM"
smiles_structure=CC(C)c1coc(C(=O)O)cc1=O meas_value="2690 nM"
smiles_structure=CCCCCc1coc(C(=O)O)cc1=O meas_value="10 nM"
smiles_structure=CC(C)CCc1coc(C(=O)O)cc1=O meas_value="210 nM"
smiles_structure=O=C(O)c1cc(=O)c(OCc2cccc([N+](=O)[O-])c2)co1 meas_value="36800 nM"
smiles_structure=CCCc1coc(C(=O)O)cc1=O meas_value="50 nM"
smiles_structure=CCCCc1coc(C(=O)O)cc1=O meas_value="10 nM"
smiles_structure=CC(C)Cc1coc(C(=O)O)cc1=O meas_value="220 nM"
smiles_structure=O=C(O)c1cc(=O)c(OCc2ccc(C(F)(F)F)cc2)co1 meas_value="45100 nM"
smiles_structure=COC(=O)/C=C/c1coc(C(=O)O)cc1=O meas_value="1190 nM"
